Target: Protein kinase C iota type (Homo sapiens) (UniProt P41743)
Sequence (whole entry): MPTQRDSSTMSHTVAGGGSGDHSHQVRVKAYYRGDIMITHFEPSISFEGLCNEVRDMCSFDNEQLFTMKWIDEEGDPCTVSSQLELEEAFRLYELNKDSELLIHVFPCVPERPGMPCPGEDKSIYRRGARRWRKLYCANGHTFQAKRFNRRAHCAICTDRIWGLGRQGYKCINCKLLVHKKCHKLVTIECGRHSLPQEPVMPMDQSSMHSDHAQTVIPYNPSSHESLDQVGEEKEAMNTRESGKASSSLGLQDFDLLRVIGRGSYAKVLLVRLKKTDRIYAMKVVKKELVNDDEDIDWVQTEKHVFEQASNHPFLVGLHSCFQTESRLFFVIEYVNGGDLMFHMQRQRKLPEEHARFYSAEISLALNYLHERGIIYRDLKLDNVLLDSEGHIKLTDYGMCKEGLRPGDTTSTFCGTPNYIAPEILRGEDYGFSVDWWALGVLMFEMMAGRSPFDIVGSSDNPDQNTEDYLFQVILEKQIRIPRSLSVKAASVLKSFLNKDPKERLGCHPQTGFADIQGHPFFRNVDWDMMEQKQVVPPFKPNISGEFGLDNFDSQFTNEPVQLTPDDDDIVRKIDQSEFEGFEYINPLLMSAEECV
Conditions: at 1 µM
Listing: residual activity of selected compounds
measure-name: residual activity (%)

- O=C1Nc2cc(Br)ccc2/C1=C1/Nc2ccccc2/C1=N\O: 110
- O=Nc1c(-c2c(O)[nH]c3ccccc23)[nH]c2ccccc12: 96
- Oc1c2ccccc2c2c3c(cccc13)N=N2: 117
- COc1cc2ncnc(N3CCN(C(=O)Nc4ccc(Oc5ccccc5)cc4)CC3)c2cc1OC: 90
- CO[C@H]1[C@@H](OC)C[C@H](C)[C@@H](OC)C2=CC(=O)C=C(NC(=O)/C(C)=C/C=C/[C@H](OC)[C@@H](OC(N)=O)/C(C)=C/[C@@H]1C)C2=O: 92
- O=[N+]([O-])c1ccc(-c2nc(-c3ccc(F)cc3)c(-c3ccncc3)[nH]2)cc1: 110
- CC[n+]1c(/C=C/N(C)c2ccccc2)n(-c2ccccc2)c2ccc(-c3nc4ccccc4s3)cc21: 93
- N#C/C(=C(\N)Sc1ccc(N)cc1)c1ccccc1C(F)(F)F: 106
- Cc1cccc(-c2[nH]c(C(C)(C)C)nc2-c2ccc3c(c2)OCO3)n1: 85

###

Listing: residual activity of selected compounds
biological target: Mitogen-activated protein kinase 8 (Homo sapiens); conditions: at 1 µM
Description: Millipore: Percentage of residual kinase activity of MAPK8 at 1uM relative to control. Control inhibitor: Jnk Inhibitor II at 100.0uM. Buffer: 50 mM Tris pH 7.5, 0.1 mM EGTA, 0.1% ? -mercaptoethanol
measure-name: residual activity (%)

• COc1cc2ncnc(Nc3ccc(Oc4ccccc4)cc3)c2cc1OC = 106
• O=[N+]([O-])c1ccc(-c2nc(-c3ccc(F)cc3)c(-c3ccncc3)[nH]2)cc1 = 102
• CC(C)n1cnc2/c(=N/c3cccc(Cl)c3)nc(NCCO)[nH]c21 = 103
• Cn1cc(/C=C2\C(=O)Nc3ccc(S(N)(=O)=O)cc32)c2ccccc21 = 109
• COc1ccc(CNc2nc(N(CCO)CCO)nc3c2ncn3C(C)C)cc1 = 104
• CNc1cc2c(Nc3cccc(Br)c3)ncnc2cn1 = 100
• CC#CC(=O)Nc1cc2c(Nc3ccc(F)c(Cl)c3)ncnc2cn1 = 96
• Ic1cccc(CSc2nnc(-c3ccncc3)o2)c1 = 93
• Nc1nc(Nc2ccc(S(N)(=O)=O)cc2)nn1C(=S)Nc1c(F)cccc1F = 88
• Cc1ccc(NC2=CC(=O)c3sc(C)nc3C2=O)cc1 = 112
• Cn1cnc2cc3c(Nc4cccc(Br)c4)ncnc3cc21 = 98
• CC(=O)O/N=C1\C(=C2\C(=O)Nc3cc(Br)ccc32)Nc2ccccc21 = 98
• O=C1NC(=O)c2cc(Nc3ccc(F)cc3)c(Nc3ccc(F)cc3)cc21 = 117
• CO[C@@H]1[C@H](N(C)C(=O)c2ccccc2)C[C@H]2O[C@]1(C)n1c3ccccc3c3c4c(c5c6ccccc6n2c5c31)C(=O)NC4 = 92
• O=C1Nc2ccc(Br)cc2/C1=C\c1cc2c([nH]1)CCCC2 = 114
• O=C1Nc2ccccc2/C1=C1/Nc2ccccc2/C1=N\OCCC(O)CO (configuration not stated) = 56
• Oc1n[nH]c2nnc(-c3c(-c4ccccc4)nn4ccccc34)cc12 = 96
• COc1ccc(S(=O)(=O)N(CCO)c2ccccc2CN(C)C/C=C/c2ccc(Cl)cc2)cc1 = 95
• CC(C)n1cnc2c(NCc3ccccc3)nc(NCCCO)nc21 = 104
• O=C(Nc1cccc(Nc2nccc(Nc3cccc(C(F)(F)F)c3)n2)c1)C1CC1 = 109
• Cc1nc2cc3nc(-c4cccs4)cnc3cc2n1C = 114
• CCN(CC)C(=O)c1ccc(Nc2nc(OCC3CCCCC3)c3nc[nH]c3n2)cc1 = 44

###

Listing: residual activity of selected compounds
molecular target: Serine/threonine-protein kinase N2 (Homo sapiens); details: at 1 µM
measure-name: residual activity (%)

* CCOc1cc2ncnc(Nc3cccc(Br)c3)c2cc1OCC | 93
* O=C1NC(=O)c2c1c1c3ccccc3[nH]c1c1[nH]c3cc(Br)ccc3c21 | 87
* O=C1Nc2cc(Br)ccc2/C1=C1/Nc2ccccc2/C1=N\O | 75
* COc1ccc(S(=O)(=O)N(CCO)c2ccccc2CN(C)C/C=C/c2ccc(Cl)cc2)cc1 | 95
* Nc1cccc(-c2cc3c(Oc4cccc(O)c4)ncnc3[nH]2)c1 | 98
* O=Nc1c(-c2c(O)[nH]c3ccccc23)[nH]c2ccccc12 | 91
* Nc1ccc2ncnc(NCCc3ccc(Oc4ccccc4)cc3)c2c1 | 98
* CO[C@H]1C[C@@H]2CC[C@@H](C)[C@@](O)(O2)C(=O)C(=O)N2CCCC[C@H]2C(=O)O[C@H]([C@H](C)C[C@@H]2CC[C@@H](O)[C@H](OC)C2)CC(=O)[C@H](C)/C=C(\C)[C@@H](O)[C@@H](OC)C(=O)[C@H](C)C[C@H](C)/C=C/C=C/C=C/1C | 95
* COc1cccc(-c2cc(=O)c3ccccc3o2)c1N | 94

###

target: Serine/threonine-protein kinase 24 (Homo sapiens) (UniProt Q9Y6E0); details: at 1 µM
Sequence (Q9Y6E0 whole entry, looked up): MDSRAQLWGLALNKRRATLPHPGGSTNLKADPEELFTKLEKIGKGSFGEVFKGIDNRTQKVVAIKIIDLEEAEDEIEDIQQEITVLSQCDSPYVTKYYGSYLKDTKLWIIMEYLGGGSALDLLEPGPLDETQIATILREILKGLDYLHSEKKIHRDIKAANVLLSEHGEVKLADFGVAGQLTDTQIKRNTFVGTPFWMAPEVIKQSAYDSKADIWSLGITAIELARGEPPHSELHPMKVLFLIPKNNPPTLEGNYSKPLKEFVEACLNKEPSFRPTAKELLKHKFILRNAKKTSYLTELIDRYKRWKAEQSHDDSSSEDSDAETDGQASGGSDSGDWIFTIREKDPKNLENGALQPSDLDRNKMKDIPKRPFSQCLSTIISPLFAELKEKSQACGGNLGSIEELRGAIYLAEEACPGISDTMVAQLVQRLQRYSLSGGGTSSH
Listing: residual activity of selected molecules
measure-name: residual activity

• COc1cc2ncnc(Nc3ccc(NC(=O)c4ccccc4)cc3)c2cc1OC = 90%
• CO[C@H]1[C@@H](OC)C[C@H](C)[C@@H](OC)C2=CC(=O)C=C(NC(=O)/C(C)=C/C=C/[C@H](OC)[C@@H](OC(N)=O)/C(C)=C/[C@@H]1C)C2=O = 68%
• Nc1ccc2ncnc(NCCc3ccc(Oc4ccccc4)cc3)c2c1 = 99%

###

Listing: residual activity of selected molecules
target: Ribosomal protein S6 kinase alpha-1 (Homo sapiens) (UniProt Q15418); conditions: at 1 µM
Sequence (Q15418 whole entry): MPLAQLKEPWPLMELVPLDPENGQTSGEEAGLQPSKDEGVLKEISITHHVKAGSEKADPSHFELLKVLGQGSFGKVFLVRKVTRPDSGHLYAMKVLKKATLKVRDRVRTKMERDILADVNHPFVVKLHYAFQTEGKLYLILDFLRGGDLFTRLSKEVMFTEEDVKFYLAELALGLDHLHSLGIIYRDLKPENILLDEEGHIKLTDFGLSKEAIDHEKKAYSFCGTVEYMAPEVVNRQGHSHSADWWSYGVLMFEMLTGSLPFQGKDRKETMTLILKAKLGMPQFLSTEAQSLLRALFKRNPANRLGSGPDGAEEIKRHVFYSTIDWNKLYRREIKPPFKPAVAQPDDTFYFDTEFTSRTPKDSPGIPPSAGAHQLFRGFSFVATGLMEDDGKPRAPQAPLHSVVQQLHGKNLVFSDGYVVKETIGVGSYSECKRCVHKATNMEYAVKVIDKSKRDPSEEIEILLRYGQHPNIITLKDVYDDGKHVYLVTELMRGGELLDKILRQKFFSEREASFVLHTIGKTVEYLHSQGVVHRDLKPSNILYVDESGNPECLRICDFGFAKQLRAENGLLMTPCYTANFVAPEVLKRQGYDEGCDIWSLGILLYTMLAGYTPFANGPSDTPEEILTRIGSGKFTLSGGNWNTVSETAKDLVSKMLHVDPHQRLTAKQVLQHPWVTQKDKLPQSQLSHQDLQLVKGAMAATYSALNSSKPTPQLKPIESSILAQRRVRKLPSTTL
measure-name: residual activity (%)

- CCN(CC)C(=O)c1ccc(Nc2nc(OCC3CCCCC3)c3nc[nH]c3n2)cc1: 58
- Cc1nc2cc3nc(-c4cccs4)cnc3cc2n1C: 115
- Cc1ccc(NC2=CC(=O)c3sc(C)nc3C2=O)cc1: 104
- N#CC(C#N)=C(N)/C(C#N)=C/c1ccc(O)cc1: 94
- CC(C)n1cnc2c(NCc3ccccc3)nc(NCCCO)nc21: 102
- COc1cccc(-c2cc(=O)c3ccccc3o2)c1N: 91
- Oc1c2ccccc2c2c3c(cccc13)N=N2: 86
- COc1cc2ncnc(Nc3ccc(Oc4ccccc4)cc3)c2cc1OC: 122
- N#Cc1cnc2cnc(NCc3cccnc3)cc2c1Nc1ccc(F)c(Cl)c1: 2
- O=C1NC(=O)/C(=C/c2ccc3c(c2)OC(F)(F)O3)S1: 125
- CCN(CC)CCCCN1c2ccccc2Oc2ccc(Cl)cc21: 110
- O=C(Nc1cccc(Nc2cc(Nc3cccc(C(F)(F)F)c3)ncn2)c1)C1CC1: 105

###

biological target: cAMP-dependent protein kinase catalytic subunit PRKX (Homo sapiens) (UniProt P51817); details: at 1 µM
Sequence (P51817 whole entry): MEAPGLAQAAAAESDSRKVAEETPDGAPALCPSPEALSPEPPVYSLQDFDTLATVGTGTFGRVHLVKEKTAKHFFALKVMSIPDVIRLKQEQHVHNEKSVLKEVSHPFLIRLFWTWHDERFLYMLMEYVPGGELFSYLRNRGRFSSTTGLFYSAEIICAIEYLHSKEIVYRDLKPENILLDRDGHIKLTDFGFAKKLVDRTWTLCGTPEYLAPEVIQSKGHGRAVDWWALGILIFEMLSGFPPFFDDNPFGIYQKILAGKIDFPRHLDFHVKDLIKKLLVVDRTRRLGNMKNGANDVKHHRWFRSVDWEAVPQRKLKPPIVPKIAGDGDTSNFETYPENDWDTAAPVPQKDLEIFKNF
measure-name: residual activity (%)

- COc1ccc(S(=O)(=O)N(CCO)c2ccccc2CN(C)C/C=C/c2ccc(Cl)cc2)cc1: 88
- Cc1cncc2cccc(S(=O)(=O)N3CCCN(C(=O)CN)C[C@H]3C)c12: 57
- N#Cc1cnc2cnc(NCc3cccnc3)cc2c1Nc1ccc(F)c(Cl)c1: 95
- c1ccc(-c2n[nH]cc2-c2ccnc3ccccc23)nc1: 96
- C[C@@H](N)[C@H]1CC[C@H](C(=O)Nc2ccncc2)CC1: 72
- CC(C)n1cnc2/c(=N/c3cccc(Cl)c3)nc(NCCO)[nH]c21: 82
- O=[N+]([O-])c1ccc(-c2nc(-c3ccc(F)cc3)c(-c3ccncc3)[nH]2)cc1: 132
- Nc1nc(Nc2ccc(S(N)(=O)=O)cc2)nn1C(=S)Nc1c(F)cccc1F: 44
- N#C/C(=C(\N)Sc1ccc(N)cc1)c1ccccc1C(F)(F)F: 95
- Cc1cc2ncc(-c3ccccc3)nc2cc1C: 108
- NC(=O)c1ccc2[nH]c(-c3ccc(Oc4ccc(Cl)cc4)cc3)nc2c1: 72
- O=C1NC(=O)/C(=C\c2ccc3nccnc3c2)S1: 67
- COc1cc2ncnc(Nc3ccc(O)c(Br)c3)c2cc1OC: 90
- O=C1c2ccccc2-[n+]2ccc3c([nH]c4ccccc43)c21: 92
- O=Nc1c(-c2c(O)[nH]c3ccccc23)[nH]c2ccccc12: 48
- CCN(CC)CCCCN1c2ccccc2Oc2ccc(Cl)cc21: 109
- COc1ccc(CNc2nc(N(CCO)CCO)nc3c2ncn3C(C)C)cc1: 95
